Target: human TLR9 (Homo sapiens, UniProt Q9NR96)
Sequence (Q9NR96 26-1032): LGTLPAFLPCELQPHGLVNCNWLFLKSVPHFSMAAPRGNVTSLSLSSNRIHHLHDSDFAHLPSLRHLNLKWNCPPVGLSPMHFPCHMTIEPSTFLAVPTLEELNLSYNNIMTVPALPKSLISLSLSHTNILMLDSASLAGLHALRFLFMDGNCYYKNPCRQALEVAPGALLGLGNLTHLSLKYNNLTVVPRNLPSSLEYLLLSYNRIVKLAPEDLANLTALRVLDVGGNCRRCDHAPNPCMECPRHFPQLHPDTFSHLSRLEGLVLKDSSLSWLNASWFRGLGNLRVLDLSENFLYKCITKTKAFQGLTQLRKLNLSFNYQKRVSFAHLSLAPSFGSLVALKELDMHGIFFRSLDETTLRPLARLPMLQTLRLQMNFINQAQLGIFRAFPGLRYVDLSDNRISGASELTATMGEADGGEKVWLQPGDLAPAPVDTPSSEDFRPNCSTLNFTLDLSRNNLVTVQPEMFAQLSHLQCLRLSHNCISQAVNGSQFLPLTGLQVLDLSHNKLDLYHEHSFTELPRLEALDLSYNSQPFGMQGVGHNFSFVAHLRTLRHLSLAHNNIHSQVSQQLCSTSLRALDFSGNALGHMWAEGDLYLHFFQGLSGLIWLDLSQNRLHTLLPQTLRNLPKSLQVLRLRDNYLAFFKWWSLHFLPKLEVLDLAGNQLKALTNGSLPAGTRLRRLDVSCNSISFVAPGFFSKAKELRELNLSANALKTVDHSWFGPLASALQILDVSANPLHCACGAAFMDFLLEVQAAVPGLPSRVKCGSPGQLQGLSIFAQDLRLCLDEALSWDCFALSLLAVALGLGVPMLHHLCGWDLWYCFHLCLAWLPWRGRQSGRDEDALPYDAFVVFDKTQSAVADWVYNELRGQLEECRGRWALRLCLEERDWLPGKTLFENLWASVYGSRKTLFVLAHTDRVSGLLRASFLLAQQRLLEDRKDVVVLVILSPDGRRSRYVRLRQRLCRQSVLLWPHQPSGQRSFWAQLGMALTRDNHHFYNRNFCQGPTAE
Assay: TLR9 inhibition reporter assay (HEK-Blue cells, SEAP reporter)
Conditions: HEK-Blue cells overexpressing human TLR9; stimulated with ODN2006 5 nM; SEAP after 22 hour incubation
pIC50: −log10 of the molar value.
If the reported pIC50 equals or exceeds 7, assign true. If not, assign false.

{"columns": ["compound", "category-label"],
 "data": [
  ["CCN1CCN(Cc2ccc(-c3cnc4cc(-c5ccc(S(C)(=O)=O)cc5)n(C)c4c3)cc2)CC1", "false"],
  ["CC(C)N1CCN(c2ccc(-c3cnc4cc(-c5ccc(S(C)(=O)=O)cc5)n(C)c4c3)cc2)[C@@H](C)C1", "false"],
  ["CC(C)N1[C@H](C)CN(c2ccc(-c3cnc4cc(-c5ccc(S(C)(=O)=O)cc5)n(C)c4c3)cc2)C[C@@H]1C", "false"],
  ["CC(C)N1CCN(c2ccc(-c3cc4nc(-c5ccc(S(C)(=O)=O)cc5)cc-4n(C)c3)cc2)CC1", "true"],
  ["CC(C)N1CCN(c2ccc(-c3cnc4cc(-c5ccc(S(C)(=O)=O)cc5)n(C)c4c3)cc2)[C@H](C)C1", "false"],
  ["Cn1c(-c2ccc(S(C)(=O)=O)cc2F)cc2ncc(-c3ccc(N4CCN5CCCC5C4)cc3)cc21 (stereo not shown)", "false"]
]}
